Numbers sourced from patent US20250368649A1.

- testedOn: KRas Q61H (Homo sapiens, UniProt P01116, Q61H)
- Sequence (P01116 1-169 isoform P01116-2 Q61H): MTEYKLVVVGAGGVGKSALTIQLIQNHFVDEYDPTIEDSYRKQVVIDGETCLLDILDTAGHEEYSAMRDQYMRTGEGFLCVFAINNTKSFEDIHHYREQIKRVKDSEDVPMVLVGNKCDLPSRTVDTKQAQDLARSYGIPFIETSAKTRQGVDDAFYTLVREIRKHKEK
- assayOverview: KRas binding assay (TR-FRET displacement), KRas Q61H
- condition: single point, 10 nM compound
assayReadout: inhibition at 0.01 µM (%)

[1] CCc1c(F)ccc2cc(O)cc(N3CCc4c(nc(OC[C@@]56CCCN5C[C@H](F)C6)nc4N4CCCn5nc(NC)c(OC)c5C4)C3)c12 [Example 393]
[2] CCc1c(F)ccc2cc(O)cc(N3CCc4c(nc(OC[C@@]56CCCN5C[C@H](F)C6)nc4N4CCCn5nc(C(=O)N6C[C@H](C)N[C@@H](C)C6)cc5C4)C3)c12 [Example 282]
Would you mind telling me which has the lower recorded inhibition at 0.01 µM between 1 and 2 ? Answer = label.
1
